B1: ZNF8 (parent)
chain: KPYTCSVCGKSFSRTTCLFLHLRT

- Variants of: B1
- assay protocol: protein stability index of a GFP-peptide fusion (GPS, HEK-293T) (PSI 1-6); higher = more stable;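 note: lentivirally expressed fusions sorted by FACS into six bins by GFP to DsRed ratio, PSI derived from sequencing read proportions per bin multiplied by bin number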
- reported conditions: c terminus: a fixed tail appended
quantity kind: protein stability index

{"primary sequence": "KPYTCSVCGKSISRTTCLFLHLRT", "reading": 3.27}
{"primary sequence": "KPYTCSVCGKSFSRSTCLFLHLRT", "reading": 2.4}
{"primary sequence": "KPYICSVCGKSFSRTTCLFLHLRT", "reading": 2.36}
{"primary sequence": "KPYTCSVCGKSFSRTTCTFLHLRT", "reading": 2.27}
{"primary sequence": "KPWTCSVCGKSFSRTTCLFLHLRT", "reading": 1.7}
{"primary sequence": "GPYTCSVCGKSFSRTTCLFLHLRT", "reading": 2.48}
{"primary sequence": "KPYTCVVCGKSFSRTTCLFLHLRT", "reading": 2.45}
{"primary sequence": "KPYTCSVCGKSFSRETCLFLHLRT", "reading": 2.64}
{"primary sequence": "KPYHCSVCGKSFSRTTCLFLHLRT", "reading": 1.8}
{"primary sequence": "KPYTCSVCGKSFSRTTCLMLHLRT", "reading": 2.35}
{"primary sequence": "KPYTCSVCGKSFSRTTCLFLTLRT", "reading": 1.56}
{"primary sequence": "KPYTCSVCSKSFSRTTCLFLHLRT", "reading": 1.72}
{"primary sequence": "KPYTCSVCGKSFSRTPCLFLHLRT", "reading": 2.67}
{"primary sequence": "KPYTCSVCGKSFSRTTFLFLHLRT", "reading": 1.92}
{"primary sequence": "KRYTCSVCGKSFSRTTCLFLHLRT", "reading": 1.77}
{"primary sequence": "VPYTCSVCGKSFSRTTCLFLHLRT", "reading": 1.72}
{"primary sequence": "KPYTCGVCGKSFSRTTCLFLHLRT", "reading": 2.48}
{"primary sequence": "KPITCSVCGKSFSRTTCLFLHLRT", "reading": 1.7}
{"primary sequence": "KPYTCSVAGKSFSRTTCLFLHLRT", "reading": 2.56}
{"primary sequence": "KPYTCSVCGKSFSRTYCLFLHLRT", "reading": 2.03}
{"primary sequence": "KPYTCSVCGKSPSRTTCLFLHLRT", "reading": 1.75}
{"primary sequence": "KPYTCSVCGKSFSRVTCLFLHLRT", "reading": 2.44}
